conditions: buffer; pH 7.4; 200.0 µM
This listing pairs compounds with measured solubility kinetic.
Entry rule: numbers only, all in µg/mL.

COc1cc(CC(=O)Nc2nc(C)cs2)cc(OC)c1OC = 42.9
O=C1/C(=C/c2ccccn2)SC(=S)N1c1ccc(O)cc1 = 0.5
Cn1cc(CCCC(=O)NCc2ccc(F)cc2)c2ccccc21 = 22.7
Cc1ccc(NC(=O)c2cccnc2C(=O)Nc2ccc(C)cc2)cc1 = 1.9
COc1ccc(C2NC(c3ccc(OC)cc3)C(C)C(=O)C2C)cc1 (stereo not drawn) = 12.2
COc1cc(C#N)ccc1OCC(=O)NCCC1=CCCCC1 = 3.7
COc1ccc(NC(=O)CNC(=O)c2ccco2)cc1S(=O)(=O)Nc1cc(C)ccc1Br = 17.1
Oc1ccc(-c2csc(Nc3ccccn3)n2)cc1 = 5.3

Data request: Entry under review: CC1CCN(C2CCN(C(=O)c3ccccc3F)CC2)CC1 . Reported solubility kinetic?
Data returned: 34.7

Data request: Entry under review: COc1ccc(N2C(=O)CCC2=O)c(OC)c1 . Reported solubility kinetic?
Data returned: 33.8

Data request: Entry under review: C=C(C)C(=O)Oc1ccc(N2C(=O)[C@@H]3C4C=CC(C4)[C@@H]3C2=O)cc1 . Reported solubility kinetic?
Data returned: 10.1

Data request: Entry under review: Cc1ccc(OCc2ccc(Br)cc2)c([N+](=O)[O-])n1 . Reported solubility kinetic?
Data returned: 2.2

Data request: Entry under review: Cc1ccccc1Sc1ccc(N)cn1 . Reported solubility kinetic?
Data returned: 31.4

Data request: Entry under review: CCN1C(=O)C(=Cc2ccc(N3CCOCC3)o2)C(=O)N(CC)C1=S . Reported solubility kinetic?
Data returned: 1.1

Data request: Entry under review: O=C(CCc1ccccc1)Nc1cccnc1Cl . Reported solubility kinetic?
Data returned: 35.1
